experiment: gradient 5% acetonitrile 3 min, to 50% in 2 min, to 85% in 15 min, held 3 min, 100 µL/min; conditions: column: Zorbax Extend-C18 2.1 x 50 mm; eluents: water / acetonitrile, 0.1% formic acid
quantity_kind: RP-LC retention time (s)
Note: unit s is implicit; provide only the numeric part.

Worked examples, 4 molecules total:
O=C1CC2(CCN(C(=O)C3CC(=O)N(c4ccc(Cl)cc4)C3)CC2)Oc2ccccc21 (stereo not given) : 831
Cc1ccc(F)cc1S(=O)(=O)Nc1cccn2c(C3CCC3)nnc12 : 817
CC(C(=O)NCc1cccs1)S(=O)(=O)c1ccc2c(c1)S(=O)(=O)N=CN2 (stereo not given) : 628
O=C(NCc1ccc2c(c1)OCO2)c1cn(-c2cc(N3CCCC3)ncn2)cn1 : 775

Moving on to the next molecule.
Recorded RP-LC retention time of COC(=O)c1cc2c(=O)n(-c3cc(Cl)ccc3Cl)ccc2nc1C , please.
944
